# testedOn: Ubiquitin carboxyl-terminal hydrolase 7 (Homo sapiens)
# assay: blocks human USP7 ubiquitin-rhodamine cleavage (AID 1645854)
# testSettings: purified USP7, Ub-rhodamine cleavage fluorescence; at 20 µM; active compounds read high
Out of some 47,000 compounds screened, about 140 (0.3%) were called active. The entries come from a sample that favours actives as a whole.
endpointLabel: inhibition (%)

[[record]]
compound = "COc1ccc(-c2nnc(-c3ccccc3)o2)cc1S(=O)(=O)N1CCc2ccccc2C1"
endpointlabel = "inhibition"
recordedvalue = 8.25

[[record]]
compound = "Cn1c(CNC(=O)c2ccc(=O)[nH]c2)nc2ccccc21"
endpointlabel = "inhibition"
recordedvalue = 3.71

[[record]]
compound = "Cc1cccc(N2CCN(C(=O)c3nc4cccnc4n(C)c3=O)CC2)c1C"
endpointlabel = "inhibition"
recordedvalue = -13.2

[[record]]
compound = "NC(=O)c1ccccc1NC(=O)C1CN(c2nc3c(F)cccc3s2)C1"
endpointlabel = "inhibition"
recordedvalue = -0.695

[[record]]
compound = "O=C(CCc1ccccc1)N1C[C@@H]2OCC(=O)N(C3CCOCC3)[C@H]2C1"
endpointlabel = "inhibition"
recordedvalue = 10.2

[[record]]
compound = "CN1C(=O)OC2(CCN(S(=O)(=O)c3ccccc3)CC2)c2ccccc21"
endpointlabel = "inhibition"
recordedvalue = 4.14

[[record]]
compound = "Cc1nc2sccn2c1CN1C[C@@H](c2ccccn2)[C@@]2(CCCCC(=O)N2)C1"
endpointlabel = "inhibition"
recordedvalue = 5.2

[[record]]
compound = "COc1ccc(OC)c(-c2cc(C(=O)N3C[C@@H]4C[C@@]5(C)[C@H](CCC[C@@H]35)N4)[nH]n2)c1"
endpointlabel = "inhibition"
recordedvalue = 1.2

[[record]]
compound = "COc1ccccc1CNS(=O)(=O)c1ccc2c(c1)C(=O)N(C)c1ncccc1O2"
endpointlabel = "inhibition"
recordedvalue = 1.09

[[record]]
compound = "CCCNC(=O)c1nc2c(o1)CN(CC1CC1)C2"
endpointlabel = "inhibition"
recordedvalue = 0.464

[[record]]
compound = "Cc1csc(C2(NC(=O)Cc3cc(C)on3)CCCC2)n1"
endpointlabel = "inhibition"
recordedvalue = -8.11

[[record]]
compound = "CC1(C)CCc2c(cc(OCC(=O)NCC(=O)O)c3c4c(c(=O)oc23)CCC4)O1"
endpointlabel = "inhibition"
recordedvalue = 8.33

[[record]]
compound = "COc1ccc(-c2cnc(N(C)C)nc2C2CCCCN2)cc1 (stereo not given)"
endpointlabel = "inhibition"
recordedvalue = -4.92

[[record]]
compound = "Cc1ccc(S(=O)(=O)N2CCN(C(=O)CN3CCc4ccccc43)CC2)cc1"
endpointlabel = "inhibition"
recordedvalue = -5.22

[[record]]
compound = "Cc1cccc(NC(=O)Cc2nc(C)c(C(=O)NC3CC3)s2)c1C"
endpointlabel = "inhibition"
recordedvalue = -0.0337

